# measurement_target: T1, Tim-Tipin complex (mouse, UniProt Q9R1X4;Q91WA1 1-1134;1-278)
# T1 sequence 1: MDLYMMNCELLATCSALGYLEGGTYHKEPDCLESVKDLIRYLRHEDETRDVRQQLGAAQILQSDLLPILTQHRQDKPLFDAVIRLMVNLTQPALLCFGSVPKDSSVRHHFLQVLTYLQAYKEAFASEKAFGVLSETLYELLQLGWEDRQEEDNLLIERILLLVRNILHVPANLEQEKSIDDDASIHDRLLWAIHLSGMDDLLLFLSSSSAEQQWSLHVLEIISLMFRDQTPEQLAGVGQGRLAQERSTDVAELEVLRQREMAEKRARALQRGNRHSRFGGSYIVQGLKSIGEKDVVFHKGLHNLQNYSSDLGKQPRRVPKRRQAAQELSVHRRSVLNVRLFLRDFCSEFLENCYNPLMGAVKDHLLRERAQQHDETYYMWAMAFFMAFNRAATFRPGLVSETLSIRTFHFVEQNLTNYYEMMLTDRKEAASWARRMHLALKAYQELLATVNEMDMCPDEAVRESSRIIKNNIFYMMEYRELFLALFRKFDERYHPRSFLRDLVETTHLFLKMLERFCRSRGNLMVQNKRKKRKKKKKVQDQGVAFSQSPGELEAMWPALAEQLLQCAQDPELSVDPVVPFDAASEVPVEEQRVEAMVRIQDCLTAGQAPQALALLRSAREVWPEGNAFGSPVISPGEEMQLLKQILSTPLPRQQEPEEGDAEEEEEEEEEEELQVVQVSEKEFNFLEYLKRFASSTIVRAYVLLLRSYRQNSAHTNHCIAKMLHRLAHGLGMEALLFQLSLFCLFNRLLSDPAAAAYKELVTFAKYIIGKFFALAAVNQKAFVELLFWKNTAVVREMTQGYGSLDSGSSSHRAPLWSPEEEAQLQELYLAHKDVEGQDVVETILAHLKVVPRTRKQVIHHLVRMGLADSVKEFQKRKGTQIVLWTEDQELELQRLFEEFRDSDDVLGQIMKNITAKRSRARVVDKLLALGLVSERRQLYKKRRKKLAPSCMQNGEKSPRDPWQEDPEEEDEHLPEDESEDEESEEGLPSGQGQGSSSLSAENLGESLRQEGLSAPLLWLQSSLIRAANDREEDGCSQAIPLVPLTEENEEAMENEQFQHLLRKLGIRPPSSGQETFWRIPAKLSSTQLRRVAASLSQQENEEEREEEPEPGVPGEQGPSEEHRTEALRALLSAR
# T1 sequence 2: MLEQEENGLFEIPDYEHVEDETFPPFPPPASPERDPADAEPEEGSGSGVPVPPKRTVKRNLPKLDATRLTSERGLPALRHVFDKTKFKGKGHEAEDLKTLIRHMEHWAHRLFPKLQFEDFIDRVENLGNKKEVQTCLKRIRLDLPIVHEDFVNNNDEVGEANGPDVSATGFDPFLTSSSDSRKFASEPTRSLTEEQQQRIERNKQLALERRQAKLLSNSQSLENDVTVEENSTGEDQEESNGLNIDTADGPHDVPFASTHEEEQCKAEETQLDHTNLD
# experiment: fluorescence anisotropy; Hill n = 1.2 ± 0.2; 30 C; 20 mM Hepes pH 7.5, 125 mM NaCl, 2 mM DTT, 0.01 mM zinc acetate (Buffer A); EMSA 15 min RT + 15 min 4 C; FA 15 min 30 C, 10 nM DNA
# condition_info: protein: recombinant; tags: His (Tim) and His-GST (Tipin), cleaved with 3C; copies: 1;1; label: 5'-FAM
pKd: −log10 of the molar value.
parameter_measured: pKd

binder	observed_result
ACGCTGCCGAATTCTACCAGTGCCTTGCTA (ssDNA) [30 nt FAM ssDNA]	5.77
